Test: Toxicity liver stage against HepG2, at 10uM
Format: cell-based
Set-up: test concentration 10 uM, cell line HepG2-A16-CD81EGFP
Details: human, HepG2-A16-CD81EGFP cells; read-out: INHIBITION
# cytotoxicity at 10 µM per record follows
Report only the number, with the unit % understood.

Fill in: cytotoxicity at 10 µM of CC(C)(C)C(=O)N1C[C@H](c2ccsc2)[C@H]2CN(C3CCCCC3)CC[C@H]21 is ___
5.9

Fill in: cytotoxicity at 10 µM of O=C(Nc1ccc2c(c1)C(=O)NC2=O)c1cccs1 is ___
-4.08

Fill in: cytotoxicity at 10 µM of NC1CCC(Nc2nccc(CCC(F)(F)F)n2)CC1 (centres undefined) is ___
-15

Fill in: cytotoxicity at 10 µM of Cn1cnnc1C1CCCN(C(=O)c2cc(-c3ccccc3)on2)C1 (centres undefined) is ___
7.36

Fill in: cytotoxicity at 10 µM of O[C@@H]1C[C@@H](c2nc(-c3ccccc3)no2)N(Cc2ccncc2)C1 is ___
2.77

Fill in: cytotoxicity at 10 µM of Cc1noc(C2CCN(C(=O)c3cc(Br)ccc3F)CC2)n1 is ___
-6.14

Fill in: cytotoxicity at 10 µM of Cc1ccc(-n2cccn2)cc1S(=O)(=O)N1C[C@H](C2CC2)[C@@H](N)C1 is ___
0.479

Fill in: cytotoxicity at 10 µM of CCCc1noc(CN2CCC(N(C)Cc3nnc(C4CC4)o3)C2)n1 (centres undefined) is ___
-0.775

Fill in: cytotoxicity at 10 µM of O=C(c1ccccc1C(F)(F)F)N1CC[C@@H](N2CCC(O)CC2)[C@H](O)C1 is ___
-2.49

###

Test: Toxicity liver stage against HepG2, at 10uM
Format: cell-based
Parameters: test concentration 10 uM, cell line HepG2-A16-CD81EGFP
Conditions: human, HepG2-A16-CD81EGFP cells; read-out: INHIBITION
MEASUREMENT_TYPE: cytotoxicity at 10 µM (%)
Report only the number, with the unit % understood.

// known answers, use as guide
COMPOUND | cytotoxicity at 10 µM (%)
COCc1cn(C[C@H]2C[C@@H]3CCN2C[C@@H]3C(=O)N2CCOCC2)nn1 | 4.45
CC(C)c1ncc2c(n1)CN(Cc1cccc3c1OCCO3)CC2 | -4.34
Cc1ccc(F)c(NC(=O)CCC(=O)N(C)Cc2cc(C3CC3)[nH]n2)c1 | 7.28
O=C(c1ccco1)N1CCCC(c2cc(C(F)(F)F)n3ncnc3n2)C1 (stereo unspecified) | -3.55
Cc1nc(CN(C)C2CCN(CCc3cccs3)C2)no1 (stereo unspecified) | 6.03

Fill in: cytotoxicity at 10 µM of Cn1cc(C[C@H]2[C@@H](O)CCN2C(=O)C2CC=CC2)cn1 is ___
5.6

Fill in: cytotoxicity at 10 µM of Cc1noc(C)c1CCC(=O)N1CCCC(n2ccnc2C)C1 (stereo unspecified) is ___
10.9

Fill in: cytotoxicity at 10 µM of Cc1nc(C(C)N(C)Cc2nc(CCC(C)C)no2)c(C)s1 (stereo unspecified) is ___
-4.76

###

Experiment: Toxicity liver stage against HepG2, at 10uM
Type: cell-based
Set-up: test concentration 10 uM, cell line HepG2-A16-CD81EGFP
Settings: human, HepG2-A16-CD81EGFP cells; read-out: INHIBITION
MEASUREMENT_TYPE: cytotoxicity at 10 µM (%)
Report only the number, with the unit % understood.

// known answers, use as guide
COMPOUND | VALUE_MEASURED
CCC(C(=O)NC(C)(C)C)n1ccc2ncccc2c1=O (stereo unspecified) | 3.69
CCc1c(C)nc2ccccc2c1N1CCC(O)CC1 | 0.395
CCN(CC)c1ncnc2c1CCN(CC1CCOCC1)CC2 | -81.5
CCc1nnc(Nc2cccc(C3CCN(C(=O)CO)CC3)n2)s1 | -3.86
COc1ccc(C(C)N(C)Cc2c(C(C)(C)C)[nH]c3ncccc23)cc1 (stereo unspecified) | -0.0612

Fill in: cytotoxicity at 10 µM of O=C(C1COc2ccccc2O1)N1Cc2cnn(CCO)c2C1 (stereo unspecified) is ___
-3.12

###

# cytotoxicity at 10 µM per record follows
Experiment: Toxicity liver stage against HepG2, at 10uM
Type: cell-based
Design: test concentration 10 uM, cell line HepG2-A16-CD81EGFP
Conditions: human, HepG2-A16-CD81EGFP cells; read-out: INHIBITION
Report only the number, with the unit % understood.

// known answers, use as guide
COMPOUND | cytotoxicity at 10 µM [%]
CC(C)=CCN1CCN(Cc2nccn2C)[C@H]2CS(=O)(=O)C[C@H]21 | -2.76
Cc1cc(NCCNS(=O)(=O)c2cn(C)nc2C)c2ccccc2n1 | 1.78

Fill in: cytotoxicity at 10 µM of CCN1CC2(CCN(CC3CCCO3)CC2)OC1=O (centres undefined) is ___
-4.78

Fill in: cytotoxicity at 10 µM of CN(CCO)C[C@@H]1CN(C(=O)Cc2ccc3ccccc3c2)C[C@@H]1CO is ___
-1.96

Fill in: cytotoxicity at 10 µM of CNc1ncc(CN2CCC(c3nnsc3S(C)(=O)=O)CC2)cn1 is ___
-0.085

Fill in: cytotoxicity at 10 µM of CCn1c(C)nnc1CN(C)C1CCN(CCn2cccn2)C1 (centres undefined) is ___
1.49

Fill in: cytotoxicity at 10 µM of COc1ncccc1CNC(=O)Nc1ccc(N(C)C)nc1 is ___
-4.38

Fill in: cytotoxicity at 10 µM of O=C(NCc1cccs1)[C@@H]1CC[C@@H]2[C@@H](CCN2C2CCOCC2)O1 is ___
0.37

###

Assay: Toxicity liver stage against HepG2, at 10uM
Type: cell-based
Design: test concentration 10 uM, cell line HepG2-A16-CD81EGFP
Settings: human, HepG2-A16-CD81EGFP cells; read-out: INHIBITION
MEASUREMENT_TYPE: cytotoxicity at 10 µM (%)
Report only the number, with the unit % understood.

MOLECULE | UNITS_LABEL | cytotoxicity at 10 µM
COc1ccc(CN(C)[C@@H]2CN(C(=O)c3ccnn3C)C[C@H]2O)cc1 | % | -13.5
COc1cc(OC)cc(N2CCC(NCc3cccs3)C2=O)c1 (centres undefined) | % | 4.63
Cc1ccc(N2CCCC(N(C)c3nn4cc(C)nc4s3)C2)nn1 (centres undefined) | % | 8.45
CCN1CCC(N2C[C@@H](C(=O)O)[C@H](c3cccc(OC)c3)C2)CC1 | % | -2.85
CS(=O)(=O)NCC1CCCN(C(=O)Nc2cccnc2N2CCCC2)C1 (centres undefined) | % | 3.85

Fill in: cytotoxicity at 10 µM of Cc1cccc(CN2CCc3ncnc(Oc4cccnc4)c3CC2)n1 is ___
-139

Fill in: cytotoxicity at 10 µM of Cc1noc([C@H]2C[C@H]3OCC[C@H]3N(Cc3cccs3)C2)n1 is ___
-96.3

Fill in: cytotoxicity at 10 µM of Cc1n[nH]c(C)c1NC(=O)c1cccc(OCC(F)(F)F)n1 is ___
-6.83

Fill in: cytotoxicity at 10 µM of COC1CCCN(C(=O)NCC(C)(C)SC)C1 (centres undefined) is ___
10.5

Fill in: cytotoxicity at 10 µM of Cc1cnn(CC2CN(Cc3nc(-c4cccnc4)no3)CCO2)c1 (centres undefined) is ___
-20.5

Fill in: cytotoxicity at 10 µM of O=C(NCCc1cc(F)ccc1F)NC(CO)c1ccccc1 (centres undefined) is ___
8.78

Fill in: cytotoxicity at 10 µM of C/C=C(\C)CN1C[C@H](c2cccc(OC)c2)[C@@H](N)C1 is ___
3.49

###

# cytotoxicity at 10 µM per record follows
Experiment: Toxicity liver stage against HepG2, at 10uM
Format: cell-based
Parameters: test concentration 10 uM, cell line HepG2-A16-CD81EGFP
Details: human, HepG2-A16-CD81EGFP cells; read-out: INHIBITION
Report only the number, with the unit % understood.

Fill in: cytotoxicity at 10 µM of Cc1ccc(N2Cc3cnn(C)c3C(COCC3CC3)C2)nn1 (stereo unspecified) is ___
3.28

Fill in: cytotoxicity at 10 µM of O=C(N1CCOCC1)[C@@]12CCO[C@@H]1CCN(Cc1cccc(F)c1)C2 is ___
10.8

Fill in: cytotoxicity at 10 µM of Nc1nc(N)c2c(n1)OC1(CCN(C(=O)CC3CCCNC3)CC1)C2 (stereo unspecified) is ___
5.03

Fill in: cytotoxicity at 10 µM of CCn1cc(CN2CCC3(CC2)c2ccccc2CC3O)cn1 (stereo unspecified) is ___
5.54

###

Test: Toxicity liver stage against HepG2, at 10uM
Type: cell-based
Parameters: test concentration 10 uM, cell line HepG2-A16-CD81EGFP
Details: human, HepG2-A16-CD81EGFP cells; read-out: INHIBITION
# cytotoxicity at 10 µM per record follows
Report only the number, with the unit % understood.

// known answers, use as guide
MOLECULAR_STRING | cytotoxicity at 10 µM (%)
COCC(=O)N1CCN(C)c2ncccc2C1 | -3.1
COc1cccc(COCC(=O)N2CCC(CC(N)=O)CC2)c1 | -4.56
Fc1ccc(CN2CCO[C@H]3[C@H](OCC4CCCC4)CC[C@@H]32)cc1 | 37.9

Fill in: cytotoxicity at 10 µM of CC(C)N(C)Cc1cnc2n1CCN(Cc1ccsc1)C2 is ___
1.96

Fill in: cytotoxicity at 10 µM of CCNC(=O)[C@@H]1C[C@H](N)CN1C(=O)C1(c2ccc(OC)cc2)CCCC1 is ___
5.67

Fill in: cytotoxicity at 10 µM of CNC(=O)[C@H]1C[C@@H]2CCN(c3nnc(C)s3)C[C@@H]2O1 is ___
-75.7

Fill in: cytotoxicity at 10 µM of CCOC(=O)N1CCN(C(=O)c2sc(-c3ccccc3F)nc2C)CC1 is ___
20

Fill in: cytotoxicity at 10 µM of CC(C)c1nn(C)c(N(C)C)c1CNCc1cscn1 is ___
-5.54

Fill in: cytotoxicity at 10 µM of CCc1noc(C)c1C(=O)N1CCCN(Cc2cscn2)CC1 is ___
-0.448

Fill in: cytotoxicity at 10 µM of Cc1cc(CNC(=O)COc2ccccc2F)c(C)o1 is ___
-2.33

Fill in: cytotoxicity at 10 µM of O=C(c1cncc(Br)c1)N1CCCc2c(F)cc(F)cc21 is ___
2.81
